# target or test system: DRB5*0101 (Homo sapiens, UniProt P01903+Q30154)
# Construct: Epstein-Barr virus (EBV) transformed homozygous cell lines were used as sources of human HLA Class II molecules; endogenous in cells; host or cells: GM3107 (EBV-transformed homozygous B cell line)
# protocol summary: Class II peptide-binding assay DRB5*0101 (DR2w2a)
pIC50: −log10 of the molar value. Ends that are not written are not given here.
experimental endpoint: pIC50

chain=DIEKKIAKMEKASSVFNVVNS target_or_test_system="DRB5*0101 (Homo sapiens, UniProt P01903+Q30154)" prefix_operator== numeric_value=5.74
chain=DTGRKLFRVYSNFLR target_or_test_system="DRB5*0101 (Homo sapiens, UniProt P01903+Q30154)" prefix_operator== numeric_value=7.92
chain=YKTIAYDEEARR target_or_test_system="DRB5*0101 (Homo sapiens, UniProt P01903+Q30154)" prefix_operator=< numeric_value=4.70
chain=YTLLQAAPALDKLKLTGDEATGANI target_or_test_system="DRB5*0101 (Homo sapiens, UniProt P01903+Q30154)" prefix_operator== numeric_value=8.20
chain=FNNFTVSFWLRVPKVSASHLEQY target_or_test_system="DRB5*0101 (Homo sapiens, UniProt P01903+Q30154)" prefix_operator== numeric_value=5.54

Value source: patent US20070184519A1
